experimentalTarget: dMi-2 WT (UniProt O97159 1-1982)
Sequence (O97159 whole entry): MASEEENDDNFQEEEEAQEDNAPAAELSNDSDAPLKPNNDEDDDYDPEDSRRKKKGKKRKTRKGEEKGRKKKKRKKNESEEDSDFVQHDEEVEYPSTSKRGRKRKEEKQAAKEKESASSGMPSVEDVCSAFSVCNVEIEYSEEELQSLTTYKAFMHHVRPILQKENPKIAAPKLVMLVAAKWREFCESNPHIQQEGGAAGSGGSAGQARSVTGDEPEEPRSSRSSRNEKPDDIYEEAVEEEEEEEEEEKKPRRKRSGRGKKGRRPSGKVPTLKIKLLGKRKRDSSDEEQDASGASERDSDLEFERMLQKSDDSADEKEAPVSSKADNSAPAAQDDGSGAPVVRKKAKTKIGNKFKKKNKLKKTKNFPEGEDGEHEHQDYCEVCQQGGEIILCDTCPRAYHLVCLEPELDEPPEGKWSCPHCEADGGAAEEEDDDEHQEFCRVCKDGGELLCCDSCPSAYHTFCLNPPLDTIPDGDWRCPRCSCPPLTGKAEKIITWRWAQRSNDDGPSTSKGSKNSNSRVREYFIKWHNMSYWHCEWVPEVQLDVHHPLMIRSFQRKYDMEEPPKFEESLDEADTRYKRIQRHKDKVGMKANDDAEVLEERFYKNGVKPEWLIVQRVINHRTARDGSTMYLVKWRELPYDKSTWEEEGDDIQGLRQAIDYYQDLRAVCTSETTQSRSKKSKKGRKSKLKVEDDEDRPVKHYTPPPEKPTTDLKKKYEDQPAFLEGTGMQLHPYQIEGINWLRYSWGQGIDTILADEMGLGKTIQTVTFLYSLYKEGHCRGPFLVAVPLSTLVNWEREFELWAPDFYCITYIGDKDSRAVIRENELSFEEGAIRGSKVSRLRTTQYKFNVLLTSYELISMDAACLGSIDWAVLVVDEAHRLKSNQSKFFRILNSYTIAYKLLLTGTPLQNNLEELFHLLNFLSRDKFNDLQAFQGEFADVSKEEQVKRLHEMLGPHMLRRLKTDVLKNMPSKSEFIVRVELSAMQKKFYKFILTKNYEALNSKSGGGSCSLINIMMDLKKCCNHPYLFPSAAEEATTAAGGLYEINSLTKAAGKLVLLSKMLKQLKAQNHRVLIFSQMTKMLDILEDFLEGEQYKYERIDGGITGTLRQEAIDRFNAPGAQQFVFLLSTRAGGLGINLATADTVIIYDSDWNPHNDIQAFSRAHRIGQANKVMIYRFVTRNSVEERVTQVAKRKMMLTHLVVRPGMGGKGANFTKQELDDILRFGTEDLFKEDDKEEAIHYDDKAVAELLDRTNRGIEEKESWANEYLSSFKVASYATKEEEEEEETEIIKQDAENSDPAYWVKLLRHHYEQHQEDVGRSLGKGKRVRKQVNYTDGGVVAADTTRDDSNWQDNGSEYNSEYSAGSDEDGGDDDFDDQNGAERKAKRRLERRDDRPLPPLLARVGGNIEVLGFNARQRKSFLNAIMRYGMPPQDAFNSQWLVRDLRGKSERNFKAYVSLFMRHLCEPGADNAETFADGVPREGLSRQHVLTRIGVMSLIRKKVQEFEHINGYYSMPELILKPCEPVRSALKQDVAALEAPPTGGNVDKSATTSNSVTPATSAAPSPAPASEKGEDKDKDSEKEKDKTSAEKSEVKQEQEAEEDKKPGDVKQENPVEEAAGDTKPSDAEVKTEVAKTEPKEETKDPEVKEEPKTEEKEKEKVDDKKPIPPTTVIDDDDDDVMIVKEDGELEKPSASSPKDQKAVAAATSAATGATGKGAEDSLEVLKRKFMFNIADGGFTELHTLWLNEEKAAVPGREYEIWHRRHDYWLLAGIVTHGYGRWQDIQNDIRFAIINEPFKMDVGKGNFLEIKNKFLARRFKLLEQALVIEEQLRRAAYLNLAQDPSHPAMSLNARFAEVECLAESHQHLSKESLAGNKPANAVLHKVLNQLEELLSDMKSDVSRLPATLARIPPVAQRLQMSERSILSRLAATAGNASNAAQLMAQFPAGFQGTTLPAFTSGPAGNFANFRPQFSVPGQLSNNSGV
protocolSummary: EMSA

>  <binder>
Hsp70Aa #1 RNA (ssRNA) RNA: CUCACACACAAUGCCUGCUAUUGGAAUCGAUCUGGGCACCACCUACUCCUGCGUGGGUGUCUACCAACAUGGCAAGGUGGAGAUUAUCGCCAACGACCAG

>  <binding result>
binds

$$$$
>  <binder>
Pgant35a #5 RNA (ssRNA) RNA: AAGUGCCACGAGAUGCUCGGCGAUCAGCAGUGGCGGCACACCCGCAACGCCAACAGUCCCGUCUACAACAUGGCCAAAGGCACCUGCCUCCGGGCAGCUG

>  <binding result>
binds

$$$$
>  <binder>
Pgant35a #2 RNA (ssRNA) RNA: UCUUCCGGGCGAUCCCAGACACUCGGCACAAGGUGUGCGAUCGCCAGGAGACCACGGAAGCGGAAAAUCUGCCCCAGGCCUCCAUAGUCAUGUGCUUCUA

>  <binding result>
binds

$$$$
